measured target: HIV-1 92UG024 Env (clade D pseudovirus) (HIV-1)
measurement notes: cell-based or functional assay
measured property: IC50 (µg/mL), pseudovirus neutralization

binder | measured property | measured value
1456_P20 (PG20) (antibody, human IgG1, kappa, V domains shown) VH: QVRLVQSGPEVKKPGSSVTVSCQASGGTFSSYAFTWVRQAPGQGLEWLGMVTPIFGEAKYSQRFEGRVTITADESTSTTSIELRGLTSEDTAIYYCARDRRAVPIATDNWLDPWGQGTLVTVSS VL: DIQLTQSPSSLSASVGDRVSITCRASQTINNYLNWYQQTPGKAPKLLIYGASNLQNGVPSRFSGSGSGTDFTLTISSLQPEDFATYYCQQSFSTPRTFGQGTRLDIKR | IC50 (µg/mL), pseudovirus neutralization | > 50 µg/mL
1495_C14 (PGC14) (antibody, human IgG1, lambda, V domains shown) VH: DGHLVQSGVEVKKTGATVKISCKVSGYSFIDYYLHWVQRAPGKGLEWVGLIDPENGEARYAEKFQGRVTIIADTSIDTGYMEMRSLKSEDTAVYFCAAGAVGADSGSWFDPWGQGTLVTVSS VL: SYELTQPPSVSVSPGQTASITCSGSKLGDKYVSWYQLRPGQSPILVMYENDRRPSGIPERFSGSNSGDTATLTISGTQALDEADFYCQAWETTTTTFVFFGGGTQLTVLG | IC50 (µg/mL), pseudovirus neutralization | > 50 µg/mL
1460_G14 (PGG14) (antibody, human IgG1, kappa, V domains shown) VH: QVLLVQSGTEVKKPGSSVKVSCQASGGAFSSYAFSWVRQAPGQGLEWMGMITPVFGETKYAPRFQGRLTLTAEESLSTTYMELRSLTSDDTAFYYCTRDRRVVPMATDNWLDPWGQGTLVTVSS VL: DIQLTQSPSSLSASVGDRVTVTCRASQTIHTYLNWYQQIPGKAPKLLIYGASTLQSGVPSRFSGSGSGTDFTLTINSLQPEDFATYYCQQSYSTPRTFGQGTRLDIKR | IC50 (µg/mL), pseudovirus neutralization | > 50 µg/mL
1443_C16 (PG16) (TCN-116) (antibody, V domains shown) VH: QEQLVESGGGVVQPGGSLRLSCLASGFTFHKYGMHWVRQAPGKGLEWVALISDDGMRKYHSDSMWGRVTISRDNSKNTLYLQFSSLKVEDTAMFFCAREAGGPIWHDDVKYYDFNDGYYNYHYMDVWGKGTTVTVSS VL: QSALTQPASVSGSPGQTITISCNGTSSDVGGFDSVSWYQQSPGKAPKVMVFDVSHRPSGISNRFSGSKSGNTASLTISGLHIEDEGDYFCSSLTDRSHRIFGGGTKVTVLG | IC50 (µg/mL), pseudovirus neutralization | > 50 µg/mL
